# assayRemarks: melting temperature; fluorescence melt of hairpins on a sequencing array, two-state fit, raised by 9.35 °C to match UV melts
# conditionParameters: sodium 0.088 M
Listed here: items and their measured Tm.

>  <querySequence>
GTTCGAGGAAACTCGGAC ((.((((....)))).))

>  <measurementUnit>
°C

>  <Tm>
51.3

$$$$
>  <querySequence>
GACGGCGGAAACGCTGTC (((.(((....))).)))

>  <measurementUnit>
°C

>  <Tm>
64.7

$$$$
>  <querySequence>
GATCGAAATGTCGATC ((((((....))))))

>  <measurementUnit>
°C

>  <Tm>
48.7

$$$$
>  <querySequence>
GATCGATGCCTCGATC ((((((....))))))

>  <measurementUnit>
°C

>  <Tm>
52.5

$$$$
>  <querySequence>
GCCACGCGAAAGCTGGGC (((..((....))..)))

>  <measurementUnit>
°C

>  <Tm>
60

$$$$
>  <querySequence>
GAAAATGGAAACATTTTC (((((((....)))))))

>  <measurementUnit>
°C

>  <Tm>
51

$$$$
>  <querySequence>
GATCCGTCCGCGGATC ((((((....))))))

>  <measurementUnit>
°C

>  <Tm>
61

$$$$
>  <querySequence>
GGCTCTACGAAAGTAGCC (((..(((....))))))

>  <measurementUnit>
°C

>  <Tm>
40.1

$$$$
>  <querySequence>
GCCAGCGAAAGCTGCGGC ((((((....)))..)))

>  <measurementUnit>
°C

>  <Tm>
61.4

$$$$
>  <querySequence>
GAGCCCCGAAAGGGACTC (((.(((....))).)))

>  <measurementUnit>
°C

>  <Tm>
58.6

$$$$
>  <querySequence>
GCCGAACGAAAGTTAGGC (((.(((....))).)))

>  <measurementUnit>
°C

>  <Tm>
60.9

$$$$
>  <querySequence>
GATCGTAGAACGATC ((((((...))))))

>  <measurementUnit>
°C

>  <Tm>
55.2

$$$$
